Cited source for all entries: patent US20240270821A1

Biological target: T1, human GIP receptor (human) (UniProt P48546)
T1 sequence (looked up): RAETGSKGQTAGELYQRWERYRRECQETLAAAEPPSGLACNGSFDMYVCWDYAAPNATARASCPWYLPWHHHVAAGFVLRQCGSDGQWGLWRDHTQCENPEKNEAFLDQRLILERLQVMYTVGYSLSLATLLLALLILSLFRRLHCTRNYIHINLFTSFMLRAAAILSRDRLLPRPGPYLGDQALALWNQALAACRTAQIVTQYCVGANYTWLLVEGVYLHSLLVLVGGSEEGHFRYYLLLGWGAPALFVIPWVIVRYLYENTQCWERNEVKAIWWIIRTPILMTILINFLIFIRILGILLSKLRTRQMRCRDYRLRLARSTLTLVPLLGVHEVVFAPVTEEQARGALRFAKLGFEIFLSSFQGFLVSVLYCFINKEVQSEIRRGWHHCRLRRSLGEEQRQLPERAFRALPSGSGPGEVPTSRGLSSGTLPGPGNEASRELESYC
Assay: cell-based or functional assay
Starred links: 1 amine or outer side, 2 acyl side, 3 side chain; linkers in the order of their positions; H or OH if unused. Non-standard residues stand in square brackets, D forms with d. Groups on a side chain read outwards from the residue. No end group written: not given here. *: point of attachment. C18 diacid = O=C(O)CCCCCCCCCCCCCCCCC(=O)*; γGlu = O=C(O)[C@H](CCC(=O)[*:2])N[*:1]; 4Pal = N[C@@H](Cc1ccncc1)C(=O)O; αMeL = CC(C)C[C@](C)(N)C(=O)O; Dab = NCC[C@H](N)C(=O)O; AEEA = NCCOCCOCC(=O)O; Aib = CC(C)(N)C(=O)O

{"Binder": "HXQGTXTSDYXIXLDXKAQXAFIEYLLEGGPSSGEPPPE (synthetic construct; SITE 2: note = 2-Aminoisobutyric Acid; SITE 6: note = alpha-methyl-2-fluoro-L-phenylalanine; SITE 11: note = alpha-methyl-L-serine; SITE 13: note = alpha-methyl-leucine; SITE 16: note = L-ornithine; SITE 17: note = Lysine is chemically modified through conjugation of the epsilon) [Example 381]", "Unit symbol": "nM", "Relative cAMP EC50": 0.0156}
{"Binder": "YXQGTXTSDXXIXLDXKAQXEFIEXLIEGGPSSGEPPPSGGGE (non-natural residues; acylated Lys C18 diacid; C-term amide; synthetic construct; SITE 2: note = 2-Aminoisobutyric Acid; SITE 6: note = alpha-methyl-L-phenylalanine; SITE 10: note = 3-(4-Pyridyl)-L-alanine; SITE 11: note = alpha-methyl-L-serine; SITE 13: note = alpha-methyl-leucine; SITE 16: note = L-ornithine; SITE 17: note = Lysine is chemically modified th) [Example 1169]", "Unit symbol": "nM", "Relative cAMP EC50": 0.011}
{"Binder": "Y[Aib]QGTFTSD[4Pal]S[Dab][αMeL]LDKK([AEEA-γGlu-C18 diacid])AQ[Aib]AFIEYLIE[Aib]GPSSGAPPPSGS-NH2 [Example 803]", "Unit symbol": "nM", "Relative cAMP EC50": 0.232}
